experiment: BTK FAC plasma stability assay, dog plasma; format: in vitro ADME; conditions: 24 h
Let's look at some molecules and their measured % Release of degrader after 24 h dog.
// return numeric value only (unit: %, not printed)

CCCCCCCCCCCN(C(=O)CCCCCCCCCC(=O)O)C(CCC(=O)NCCOCCOCCOCCOCCOCCOCCOCCOCCOCCOCCOCCOCCC(=O)N[C@@H](C)CC(=O)OC(C)(C)c1ccc(C(=O)Nc2cc(F)cc(-c3ncnc4[nH]c(-c5ccc(CCN6CCC7(CC6)CCN(C(=O)c6ccc(OC)c(N8CCC(=O)NC8=O)c6)CC7)cc5)cc34)c2C)c(F)c1)C(=O)O (stereo partly drawn) ... 0.4
CCCCCCCCCCCN(C(=O)CCCCCCCCCC(=O)O)C(CCC(=O)NCCOCCOCCOCCOCCOCCOCCOCCOCCOCCOCCOCCOCCC(=O)NCC(=O)OC(C)(C)c1ccc(C(=O)Nc2cc(F)cc(-c3ncnc4[nH]c(-c5ccc(CCN6CCC7(CC6)CCN(C(=O)c6ccc(OC)c(N8CCC(=O)NC8=O)c6)CC7)cc5)cc34)c2C)c(F)c1)C(=O)O (stereo not drawn) ... 14.6

Which measured % Release of degrader after 24 h dog value corresponds to CCCCCCCCCCCN(C(=O)CCCCCCCCCC(=O)O)C(CCC(=O)NCCOCCOCCOCCOCCOCCOCCOCCOCCOCCOCCOCCOCCC(=O)NCc1ccc(C(=O)OC(C)(C)c2ccc(C(=O)Nc3cc(F)cc(-c4ncnc5[nH]c(-c6ccc(CCN7CCC8(CC7)CCN(C(=O)c7ccc(OC)c(N9CCC(=O)NC9=O)c7)CC8)cc6)cc45)c3C)c(F)c2)cn1)C(=O)O (stereo not drawn) ? 1.1

* * *

Let's look at some compounds and their measured % Release of degrader after 24 h dog.
assay: BTK FAC plasma stability assay, dog plasma; assay type: in vitro ADME; conditions: 24 h
// return numeric value only (unit: %, not printed)

CCCCCCCCCCCN(C(=O)CCCCCCCCCC(=O)O)C(CCC(=O)NCCOCCOCCOCCOCCOCCOCCOCCOCCOCCOCCOCCOCCOCCOCCOCCOCCC(=O)NCC(=O)OC(C)(C)c1ccc(C(=O)Nc2cc(F)cc(-c3ncnc4[nH]c(-c5ccc(CCN6CCC7(CC6)CCN(C(=O)c6ccc(OC)c(N8CCC(=O)NC8=O)c6)CC7)cc5)cc34)c2C)c(F)c1)C(=O)O (stereo not drawn) [Example A9] ... 5.7
CCCCCCCCCCCN(C(=O)CCCCCCCCCC(=O)O)C(CCC(=O)NCCOCCOCCOCCOCCOCCOCCOCCOCCOCCOCCOCCOCCC(=O)N(CC)CC(=O)OC(C)(C)c1ccc(C(=O)Nc2cc(F)cc(-c3ncnc4[nH]c(-c5ccc(CCN6CCC7(CC6)CCN(C(=O)c6ccc(OC)c(N8CCC(=O)NC8=O)c6)CC7)cc5)cc34)c2C)c(F)c1)C(=O)O (stereo not drawn) [Example A13] ... 2.7

Attention now shifts to the item below.
Which measured % Release of degrader after 24 h dog value corresponds to CCCCCCCCCCCN(C(=O)CCCCCCCCCC(=O)O)[C@@H](CCC(=O)NCC(=O)OC(C)(C)c1ccc(C(=O)Nc2cc(F)cc(-c3ncnc4[nH]c(-c5ccc(CCN6CCC7(CC6)CCN(C(=O)c6ccc(OC)c(N8CCC(=O)NC8=O)c6)CC7)cc5)cc34)c2C)c(F)c1)C(=O)O [Example A6] ? 4.6

* * *

experiment: BTK FAC plasma stability assay, dog plasma; type: in vitro ADME; settings: 24 h
Let's look at some compounds and their measured % Release of degrader after 24 h dog.
// return numeric value only (unit: %, not printed)

CCCCCCCCCCCN(C(=O)CCCCCCCCCC(=O)O)C(CCC(=O)NCCOCCOCCOCCOCCOCCOCCOCCOCCOCCOCCOCCOCCC(=O)NC(C)(C)CC(=O)OC(C)(C)c1ccc(C(=O)Nc2cc(F)cc(-c3ncnc4[nH]c(-c5ccc(CCN6CCC7(CC6)CCN(C(=O)c6ccc(OC)c(N8CCC(=O)NC8=O)c6)CC7)cc5)cc34)c2C)c(F)c1)C(=O)O (centres unmarked) [Example A18] ... 0.3

Attention now shifts to the item below.
Which measured % Release of degrader after 24 h dog value corresponds to CCCCCCCCCCCN(C(=O)CCCCCCCCCC(=O)O)C(CCC(=O)NCCOCCOCCOCCOCCOCCOCCOCCOCCOCCOCCOCCOCCC(=O)NCc1cc(C(=O)OC(C)(C)c2ccc(C(=O)Nc3cc(F)cc(-c4ncnc5[nH]c(-c6ccc(CCN7CCC8(CC7)CCN(C(=O)c7ccc(OC)c(N9CCC(=O)NC9=O)c7)CC8)cc6)cc45)c3C)c(F)c2)ccn1)C(=O)O (centres unmarked) [Example A26] ? 10.9

* * *

test: BTK FAC plasma stability assay, PBS buffer arm; format: physicochemical; details: incubation to 24 h
quantity: Plasma stability (h) PBS

COc1ccc(C(=O)N2CCC3(CCN(CCc4ccc(-c5cc6c(-c7cc(F)cc(NC(=O)c8ccc(C(C)(C)OC(=O)CNC(=O)CCOCCOCCOCCOCCOCCOCCOCCOCCOCCOCCOCCOCCNC(C)=O)cc8F)c7C)ncnc6[nH]5)cc4)CC3)CC2)cc1N1CCC(=O)NC1=O ... >48 h

Attention now shifts to the item below.
Which measured Plasma stability (h) PBS value corresponds to CCCCCCCCCCCN(C(=O)CCCCCCCCCC(=O)O)C(CCC(=O)NCCOCCOCCOCCOCCOCCOCCOCCOCCOCCOCCOCCOCCC(=O)NCc1ccc(CC(=O)OC(C)(C)c2ccc(C(=O)Nc3cc(F)cc(-c4ncnc5[nH]c(-c6ccc(CCN7CCC8(CC7)CCN(C(=O)c7ccc(OC)c(N9CCC(=O)NC9=O)c7)CC8)cc6)cc45)c3C)c(F)c2)cc1)C(=O)O (centres unmarked) ? >48 h

* * *

assay: BTK FAC plasma stability assay, cyno plasma; assay type: in vitro ADME, cynomolgus monkey
quantity: Plasma stability (h) cyno

Field: example entries. Status: answers known.
CCCCCCCCCCCN(C(=O)CCCCCCCCCC(=O)O)C(CCC(=O)NCCOCCOCCOCCOCCOCCOCCOCCOCCOCCOCCOCCOCCC(=O)NCCC(=O)OC(C)(C)c1ccc(C(=O)Nc2cc(F)cc(-c3ncnc4[nH]c(-c5ccc(CCN6CCC7(CC6)CCN(C(=O)c6ccc(OC)c(N8CCC(=O)NC8=O)c6)CC7)cc5)cc34)c2C)c(F)c1)C(=O)O (stereo not drawn) ... 44.9 h
CCCCCCCCCCCN(C(=O)CCCCCCCCCC(=O)O)C(CCC(=O)NCCOCCOCCOCCOCCOCCOCCOCCOCCOCCOCCOCCOCCC(=O)N(CC)CC(=O)OC(C)(C)c1ccc(C(=O)Nc2cc(F)cc(-c3ncnc4[nH]c(-c5ccc(CCN6CCC7(CC6)CCN(C(=O)c6ccc(OC)c(N8CCC(=O)NC8=O)c6)CC7)cc5)cc34)c2C)c(F)c1)C(=O)O (stereo not drawn) ... >48 h

Attention now shifts to the item below.
Which measured Plasma stability (h) cyno value corresponds to CCCCCCCCCCCN(C(=O)CCCCCCCCCC(=O)O)C(CCC(=O)NCCOCCOCCOCCOCCOCCOCCOCCOCCOCCOCCOCCOCCC(=O)N1CCC[C@H]1CC(=O)OC(C)(C)c1ccc(C(=O)Nc2cc(F)cc(-c3ncnc4[nH]c(-c5ccc(CCN6CCC7(CC6)CCN(C(=O)c6ccc(OC)c(N8CCC(=O)NC8=O)c6)CC7)cc5)cc34)c2C)c(F)c1)C(=O)O (stereo partly drawn) ? >48 h

* * *

Let's look at some compounds and their measured Plasma stability (h) dog.
assay: BTK FAC plasma stability assay, dog plasma; type: in vitro ADME
// return numeric value only (unit: h, not printed)

Field: example entries. Status: answers known.
CCCCCCCCCCCN(C(=O)CCCCCCCCCC(=O)O)C(CCC(=O)NCCOCCOCCOCCOCCOCCOCCOCCOCCOCCOCCOCCOCCC(=O)NCCOP(=O)(O)OC(C)(C)c1ccc(C(=O)Nc2cc(F)cc(-c3ncnc4[nH]c(-c5ccc(CCN6CCC7(CC6)CCN(C(=O)c6ccc(OC)c(N8CCC(=O)NC8=O)c6)CC7)cc5)cc34)c2C)c(F)c1)C(=O)O (stereo not shown) ... 39.0
CCCCCCCCCCCN(C(=O)CCCCCCCCCC(=O)O)C(CCC(=O)NCCOCCOCCOCCOCCOCCOCCOCCOCCOCCOCCOCCOCCC(=O)N1CCC(F)(C(=O)OC(C)(C)c2ccc(C(=O)Nc3cc(F)cc(-c4ncnc5[nH]c(-c6ccc(CCN7CCC8(CC7)CCN(C(=O)c7ccc(OC)c(N9CCC(=O)NC9=O)c7)CC8)cc6)cc45)c3C)c(F)c2)CC1)C(=O)O (stereo not shown) ... 23

Which measured Plasma stability (h) dog value corresponds to CCCCCCCCCCCN(C(=O)CCCCCCCCCC(=O)O)C(CCC(=O)NCCOCCOCCOCCOCCOCCOCCOCCOCCOCCOCCOCCOCCC(=O)NCc1cc(C(=O)OC(C)(C)c2ccc(C(=O)Nc3cc(F)cc(-c4ncnc5[nH]c(-c6ccc(CCN7CCC8(CC7)CCN(C(=O)c7ccc(OC)c(N9CCC(=O)NC9=O)c7)CC8)cc6)cc45)c3C)c(F)c2)ccn1)C(=O)O (stereo not shown) ? 39.2

Which measured Plasma stability (h) dog value corresponds to CCCCCCCCCCCN(C(=O)CCCCCCCCCC(=O)O)[C@H](CCC(=O)NCCOCCOCCOCCOCCOCCOCCOCCOCCOCCOCCOCCOCCC(=O)NCC(=O)OC(C)(C)c1ccc(C(=O)Nc2cc(F)cc(-c3ncnc4[nH]c(-c5ccc(CCN6CCC7(CC6)CCN(C(=O)c6ccc(OC)c(N8CCC(=O)NC8=O)c6)CC7)cc5)cc34)c2C)c(F)c1)C(=O)O ? 44.4
